assay: Cytotoxicity against human CCD-18Co cells after 72 hrs by MTS assay; assay type: cell-based
Measured endpoint: IC50

**Query** Would you kindly share the measured IC50 for COc1cc2ccc(=O)oc2cc1O[C@@H]1O[C@H](CO)[C@@H](O)[C@H](O)[C@H]1O ?
**Result** < 5 µg/mL

**Query** Could you do the same for COc1cc([C@@H]2c3cc4c(cc3[C@@H](O[C@@H]3O[C@@H]5CO[C@@H](C)O[C@H]5[C@H](O)[C@H]3O)[C@H]3COC(=O)[C@H]23)OCO4)cc(OC)c1O [ETOPOSIDE] , please?
**Result** 43.6 µg/mL

**Query** Could you do the same for COC(=O)c1cc(O[C@@H]2O[C@H](CO)[C@@H](O)[C@H](O)[C@H]2O[C@@H]2OC[C@](O)(CO)[C@H]2O)ccc1O [SACCHARUMOSIDE D] , please?
**Result** < 5 µg/mL

**Query** Could you do the same for COc1cc([C@@H]2Oc3c(OC)cc(CCCO)cc3[C@H]2CO)ccc1O[C@@H]1O[C@@H](C)[C@H](O)[C@@H](O)[C@H]1O , please?
**Result** < 5 µg/mL

**Query** Could you do the same for COc1cc(O[C@@H]2O[C@H](CO)[C@@H](O)[C@H](O)[C@H]2O)cc(OC)c1OC , please?
**Result** < 5 µg/mL

**Query** Could you do the same for COc1cc(CO)ccc1O[C@@H]1O[C@H](CO)[C@@H](O)[C@H](O)[C@H]1O [VANILLOLOSIDE] , please?
**Result** < 5 µg/mL

---

Item-by-item account of IC50
assay: Cytotoxicity against human CCD-18Co cells after 72 hrs by MTS assay; format: cell-based

Previously resolved entries follow.
COc1cc(CO)cc(OC)c1O[C@@H]1O[C@H](CO)[C@@H](O)[C@H](O)[C@H]1O :: < 5 µg/mL
COc1cc([C@H]2OC[C@H]3[C@@H]2CO[C@@H]3c2cc(OC)c(O[C@@H]3O[C@H](CO)[C@@H](O)[C@H](O)[C@H]3O)c(OC)c2)cc(OC)c1O :: < 5 µg/mL

**Query** Would you kindly share the measured IC50 for COc1cc(C(=O)OC[C@H]2O[C@@H](Oc3ccc([C@@H]4Oc5c(OC)cc(CCCO)cc5[C@H]4CO)cc3OC)[C@H](O)[C@@H](O)[C@@H]2O)ccc1O [SACCHARUMOSIDE A] ?
**Result** < 5 µg/mL
